Answer each item with its documented DC50.
# Experimental System: ER in T47D cells (Homo sapiens (Human))
# Protocol Description: In-cell Western (ICW) ER degradation assay in T47D cells
# Type: cell-based
# Setup Conditions: ER degradation, 16 hrs treatment

Quick note, DC50 for COc1cc(N2CCC3(CC2)CC(CN2CCC(c4ccc(N[C@H]5CCC(=O)NC5=O)cc4)CC2)C3)c(F)cc1[C@H]1c2ccc(O)cc2CC[C@H]1c1ccccc1 (single isomer, unassigned) [Compound A32] landed at 10 to 100 nM

Quick request: DC50 for each listed item, please.
1. COc1cc([C@@H]2c3ccc(O)cc3CC[C@@H]2c2ccccc2)c(F)cc1N1CCC(CN2CCN3c4ccc5c(c4OC[C@H]3C2)CN([C@H]2CCC(=O)NC2=O)C5=O)CC1 (single isomer, unassigned) [Compound A98]
2. O=C1CC[C@H](N2Cc3c(ccc4c3OC[C@H]3CN(CC5CCC6(CC5)CN(c5ccc([C@@H]7c8ccc(O)cc8CC[C@@H]7c7ccccc7)cn5)C6)CCN43)C2=O)C(=O)N1 (single isomer, unassigned) [Compound A123]
3. COc1cc(N2CCC(CN3CCC4(CC3)COc3cc5c(cc34)CN([C@H]3CCC(=O)NC3=O)C5=O)CC2)ccc1[C@H]1c2ccc(O)cc2CC[C@H]1c1ccccc1 [Compound A38]

result:
["10 to 100 nM", "< 1 nM", "1 to 10 nM"]

----------
# Experimental System: ER in T47D cells (Homo sapiens (Human), UniProt P03372)
# Sequence (P03372 whole entry): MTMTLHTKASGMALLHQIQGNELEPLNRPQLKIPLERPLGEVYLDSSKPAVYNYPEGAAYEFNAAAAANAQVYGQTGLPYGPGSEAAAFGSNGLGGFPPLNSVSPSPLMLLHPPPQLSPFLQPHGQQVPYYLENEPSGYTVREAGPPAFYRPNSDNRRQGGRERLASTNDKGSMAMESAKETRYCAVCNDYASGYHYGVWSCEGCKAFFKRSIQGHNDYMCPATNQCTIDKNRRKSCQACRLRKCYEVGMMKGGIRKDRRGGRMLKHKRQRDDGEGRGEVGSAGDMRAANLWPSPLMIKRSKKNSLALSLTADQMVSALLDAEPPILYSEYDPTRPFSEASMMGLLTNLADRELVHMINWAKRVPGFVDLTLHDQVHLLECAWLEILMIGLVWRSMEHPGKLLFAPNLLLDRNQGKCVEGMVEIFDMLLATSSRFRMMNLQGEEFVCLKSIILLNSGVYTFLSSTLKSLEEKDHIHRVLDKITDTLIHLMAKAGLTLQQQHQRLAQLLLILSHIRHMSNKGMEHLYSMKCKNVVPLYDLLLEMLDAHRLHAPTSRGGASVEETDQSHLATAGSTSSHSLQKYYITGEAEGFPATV
# Protocol Description: In-cell Western (ICW) ER degradation assay in T47D cells
# Assay type: cell-based
# Setup Conditions: ER degradation, 16 hrs treatment
Answer each item with its documented DC50.

Answered cases to consult:
Quick note, DC50 for O=C1CC[C@@H](Nc2ccc([C@@]34CCN(CC5CC6(CCN(c7ccc([C@@H]8c9ccc(O)cc9CC[C@@H]8c8ccccc8)cc7)CC6)C5)C[C@@H]3C4(F)F)cc2)C(=O)N1 landed at 1 to 10 nM

Quick note, DC50 for O=C1CC[C@H](NC(=O)c2ccc3c(n2)OC[C@H]2CN(CC4CC5(CCN(c6ccc([C@@H]7c8ccc(O)cc8CC[C@@H]7c7ccccc7)cn6)CC5)C4)CCN32)C(=O)N1 (single isomer, unassigned) landed at 1 to 10 nM

Quick note, DC50 for COc1cc(N2CCC(CN3CCC(c4ccc(N[C@H]5CCC(=O)NC5=O)cc4)CC3)CC2)ccc1[C@@H]1c2ccc(O)cc2CC[C@@H]1c1ccccc1 (single isomer, unassigned) landed at 10 to 100 nM

Quick note, DC50 for COc1cc(N2CC3(CC(CN4CCN5c6ccc7c(c6OC[C@H]5C4)CN([C@H]4CCC(=O)NC4=O)C7=O)CO3)C2)ccc1[C@H]1c2ccc(O)cc2CC[C@H]1c1ccccc1 (single isomer, unassigned) landed at 1 to 10 nM

Quick note, DC50 for O=C1CC[C@H](N2Cc3cc4c(cc3C2=O)OCC42CCN(CC3CC4(CCN(c5ccc([C@@H]6c7ccc(O)cc7CC[C@@H]6c6ccccc6)cn5)CC4)C3)CC2)C(=O)N1 landed at < 1 nM

Quick request: DC50 for each listed item, please.
1. O=C1CC[C@H](N2Cc3c(ccc4c3OC[C@H]3CN(CC5CC6(CCN(c7ncc([C@@H]8c9ccc(O)cc9CC[C@@H]8c8ccccc8)cn7)CC6)C5)CCN43)C2=O)C(=O)N1 (single isomer, unassigned)
2. COc1cc(N2CCC(CN3CCN4c5cc6c(cc5OC[C@@H]4C3)C(=O)N([C@H]3CCC(=O)NC3=O)C6)CC2)ccc1[C@H]1c2ccc(O)cc2CC[C@H]1c1ccccc1 (single isomer, unassigned)
3. COc1cc(N2CCC3(CC2)CC(CN2CCN4c5ccc6c(c5OC[C@H]4C2)CN([C@H]2CCC(=O)NC2=O)C6=O)CO3)ccc1[C@@H]1c2ccc(O)cc2CC[C@@H]1c1ccccc1 (stereo partly drawn)
4. COc1cc(N2CCC3(CC2)CC(CN2CCN4c5ccc6c(c5OC[C@H]4C2)CN([C@H]2CCC(=O)NC2=O)C6=O)C3)c(F)cc1[C@@H]1c2ccc(O)cc2CC[C@@H]1c1ccccc1

result:
["1 to 10 nM", "1 to 10 nM", "1 to 10 nM", "< 1 nM"]
